Provide the recorded % activity at (100) for the entries that follow.
target: rat recombinant neurolysin (Rattus norvegicus); construct: polyhistidine (N); made in house; host or cells: Escherichia coli (pBAD/His vector); experiment: Enzymatic assay: QFS hydrolysis by rat recombinant neurolysin; format: biochemical; conditions: 100 μM compound; QFS 25 μM; compared to vehicle control
Sequence (P42676 38-704): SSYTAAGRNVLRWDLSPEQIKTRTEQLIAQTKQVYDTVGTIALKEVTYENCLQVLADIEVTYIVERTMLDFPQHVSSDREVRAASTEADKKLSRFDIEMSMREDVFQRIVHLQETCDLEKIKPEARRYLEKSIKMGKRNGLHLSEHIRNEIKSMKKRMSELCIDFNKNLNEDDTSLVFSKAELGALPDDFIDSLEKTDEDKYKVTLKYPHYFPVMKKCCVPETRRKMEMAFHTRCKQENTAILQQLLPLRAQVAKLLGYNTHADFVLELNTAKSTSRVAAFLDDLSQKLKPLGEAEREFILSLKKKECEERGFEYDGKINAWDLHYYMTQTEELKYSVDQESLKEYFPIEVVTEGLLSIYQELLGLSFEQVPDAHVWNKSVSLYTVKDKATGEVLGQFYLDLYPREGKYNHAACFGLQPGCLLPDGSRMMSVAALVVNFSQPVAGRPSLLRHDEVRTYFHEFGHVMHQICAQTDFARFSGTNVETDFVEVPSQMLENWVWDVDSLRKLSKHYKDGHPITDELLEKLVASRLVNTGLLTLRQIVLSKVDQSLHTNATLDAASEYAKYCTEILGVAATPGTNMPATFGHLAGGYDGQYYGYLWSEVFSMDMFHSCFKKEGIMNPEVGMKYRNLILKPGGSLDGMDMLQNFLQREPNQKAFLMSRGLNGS
The reply must contain the numeric value and, after it, the unit.

Sample answers from the record:
{"columns": ["Compound", "Target or system", "Val"],
 "data": [
  ["CNCCc1cn(C2OC(CO)C(O)C(O)C2O)cn1 (stereo not drawn)", "rat recombinant neurolysin (Rattus norvegicus)", "28%"],
  ["NC1=C(O)/C(=N/NS(=O)(=O)c2ccccc2)C(c2ccc3c(c2)OCO3)O1 (stereo not drawn)", "rat recombinant neurolysin (Rattus norvegicus)", "76%"],
  ["CCC1COc2nc(=O)c(C=NCCCN(C)C)c(N)n21 (stereo not drawn)", "rat recombinant neurolysin (Rattus norvegicus)", "108%"],
  ["Cc1cn(C(C=O)OC(C=O)CO)c(=O)[nH]c1=O (stereo not drawn)", "rat recombinant neurolysin (Rattus norvegicus)", "97%"],
  ["CSCCC(N)[P+](=O)O (stereo not drawn)", "rat recombinant neurolysin (Rattus norvegicus)", "92%"],
  ["NCC(SSC(CN)C(=O)O)C(=O)O (stereo not drawn)", "rat recombinant neurolysin (Rattus norvegicus)", "80%"],
  ["CCOCCOCCN1CNc2nc(N)[nH]c(=O)c2C1", "rat recombinant neurolysin (Rattus norvegicus)", "98%"],
  ["S=C(NCN1CCNCC1)C(=S)NCN1CCNCC1", "rat recombinant neurolysin (Rattus norvegicus)", "106%"]
]}

Kindly consider the entry below.
What does the data say about its % activity at (100)? Entry: `NCCCNCCSP(=O)(O)O`
127%

====

Give measured % activity at 10 for each item. Keep answers brief.
target: rat recombinant neurolysin (Rattus norvegicus); construct: polyhistidine (N); made in house; host or cells: Escherichia coli (pBAD/His vector); experiment: Enzymatic assay: QFS hydrolysis by rat recombinant neurolysin; type: biochemical; conditions: 10 μM compound; QFS 25 μM; compared to vehicle control
Give bare numbers, in %.

Dear reader, for each entry below, please note its % activity at 10.
1. S=C(NCN1CCNCC1)C(=S)NCN1CCNCC1
2. Cc1cn(C(C=O)OC(C=O)CO)c(=O)[nH]c1=O (stereo not drawn)
3. NCCCNCCSP(=O)(O)O

[102, 107, 106]
